Every entry's value here was drawn from PubChem BioAssay (NCI).

# Test system: TK-10 renal
# assay overview: NCI tumour cell line growth inhibition, 48 h
# maps each entry to its TGI

# annotated cases, reported TGI shown
O=C(CCN1CCN(c2cnc3ccccc3n2)CC1)c1csc2ccccc12: 42.6 µM
CCCCCCCCCC[C@@H](O)[C@H]1CC[C@H]([C@H]2CC[C@H]([C@H](O)CCCCCCCCCC[C@@H]3CC(CC(C)=O)C(=O)O3)O2)O1 (stereo partly drawn): > 50 µM
Cc1ccc(-c2cc(N)n(-c3nc4c([nH]3)c(=O)n(C)c(=O)n4C)n2)cc1: 26.4 µM
O=C(Nc1nc2ccccc2s1)OCC(F)(F)F: > 100 µM
C1COCCN1.C1COCCN1.N.N.[Cl-].[Pt+2]: > 100 µM

Switching to the query record.
Ask: Look up and state reported TGI for "NC(N)=N/N=C(/c1ccccc1)c1ccc(F)cc1"
Result: 18.4 µM
